Cited source for all entries: patent US8969554B2

- Tested on: Scirpus juncoides Rocxb.
- experiment_description: Herbicidal activity by paddy field soil treatment (Test Example 1)
- Type: in vivo
- Set-up: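 index 0 to 10 in 10% steps of herbicidal effect with 10 meaning complete death and 0 below 10%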
- recorded_conditions: applied on water surface, 1000 g of effective component per hectare, day 21 after the treatment
- Method: Test for Determining Herbicidal Activity by Paddy Field Soil Treatment A 100 cm^2 wide plastic pot was filled with a paddy field soil and, after watering and shuffling, seeds of each of Echinochloa oryzicola, Monochoria vaginalis, and Scirpus juncoides Rocxb. were sowed and watered to a depth of 3 cm. On the next day, the wettable powder obtained in view of Formulation example 1 was diluted with water and applied on water surface. […]
Here, each record is paired with measured herbicidal effect index, S. juncoides Rocxb. data.
measurement_label: herbicidal effect index, S. juncoides Rocxb.

structure_string	assayed_system	reading
Cc1ccc(-n2c(=O)c(C(=O)C3=C(O)CCCC3=O)nn(C)c2=O)cc1C	Scirpus juncoides Rocxb.	10
COc1ccc(-n2c(=O)c(C(=O)C3=C(O)CCCC3=O)nn(C)c2=O)cc1F	Scirpus juncoides Rocxb.	10
Cn1nc(C(=O)C2=C(O)CCCC2=O)c(=O)n(-c2cc(Cl)c(Cl)c(Cl)c2)c1=O	Scirpus juncoides Rocxb.	10
CC(C)N(c1ccccc1)n1c(=O)c(C(=O)O)nn(C)c1=O	Scirpus juncoides Rocxb.	10
Cc1cc(Cl)ccc1-n1c(=O)c(C(=O)C2=C(O)CCCC2=O)nn(C)c1=O	Scirpus juncoides Rocxb.	10
CC(C)Cn1c(=O)c(C(=O)C2=C(O)CCCC2=O)nn(-c2ccccn2)c1=O	Scirpus juncoides Rocxb.	8
CCn1nc(C(=O)C2=C(O)CCCC2=O)c(=O)n(-c2ccccc2)c1=O	Scirpus juncoides Rocxb.	10
Cc1c(F)cccc1-n1c(=O)c(C(=O)C2=C(O)CCCC2=O)nn(C)c1=O	Scirpus juncoides Rocxb.	10
CON=C(C)Cn1c(=O)c(C(=O)O)nn(C)c1=O	Scirpus juncoides Rocxb.	10
Cc1ccc(-n2c(=O)c(C(=O)O)nn(C)c2=O)nc1	Scirpus juncoides Rocxb.	10
Cn1nc(C(=O)C2=C(O)CCCC2=O)c(=O)n(-c2ccc(Cl)cn2)c1=O	Scirpus juncoides Rocxb.	9
Cn1ncc(C(=O)c2nn(C)c(=O)n(-c3ccccc3)c2=O)c1O	Scirpus juncoides Rocxb.	7
Cc1cccc(-n2c(=O)c(C(=O)C3=C(O)CCCC3=O)nn(C)c2=O)c1Cl	Scirpus juncoides Rocxb.	10
CN(c1ccc(F)cc1)n1c(=O)c(C(=O)O)nn(C)c1=O	Scirpus juncoides Rocxb.	10
Cn1nc(C(=O)C2=C(O)CCCC2=O)c(=O)n(C2CCCCC2)c1=O	Scirpus juncoides Rocxb.	10

---

- Tested on: Echinochloa crus-galli
- experiment_description: Herbicidal activity by field soil treatment (Test example 2)
- Assay type: in vivo
- Set-up: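 index 0 to 10 in 10% steps of herbicidal effect with 10 meaning complete death and 0 below 10%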
- recorded_conditions: 1000 g effective component per hectare, day 21 after the treatment
Here, each record is paired with measured herbicidal effect index, Echinochloa crus-galli data.
measurement_label: herbicidal effect index, Echinochloa crus-galli

molecule	reading
COc1ccc(Cl)cc1-n1c(=O)c(C(=O)C2=C(O)CCCC2=O)nn(C)c1=O	10
Cn1nc(C(=O)C2=C(O)CCCC2=O)c(=O)n(-c2cc(Cl)ccc2Cl)c1=O	9
CCc1ccccc1-n1c(=O)c(C(=O)C2=C(O)CCCC2=O)nn(C)c1=O	10
Cc1cc(-n2c(=O)c(C(=O)C3=C(O)CCCC3=O)nn(C)c2=O)ccc1Cl	9
Cn1nc(C(=O)C2=C(O)CCCC2=O)c(=O)n(N2CCOCC2)c1=O	10
CCON=C(C)Cn1c(=O)c(C(=O)C2=C(O)CCCC2=O)nn(C)c1=O	9
CC(Cn1c(=O)c(C(=O)C2=C(O)CCCC2=O)nn(C)c1=O)=NOC(C)C	9
Cc1cc(F)cc(-n2c(=O)c(C(=O)C3=C(O)CCCC3=O)nn(C)c2=O)c1	10
COc1ccc(-n2c(=O)c(C(=O)C3=C(O)CCCC3=O)nn(C)c2=O)cc1C	8
Cn1nc(C(=O)C2=C(O)CCCC2=O)c(=O)n(-c2ccc(F)cc2F)c1=O	10
CC(C)n1nc(C(=O)C2=C(O)CCCC2=O)c(=O)n(-c2ccccc2)c1=O	10
Cn1nc(C(=O)C2=C(O)CCCC2=O)c(=O)n(C2CC2)c1=O	9
CC1CC(C)(C)C(=O)C(C(=O)c2nn(C)c(=O)n(-c3ccccc3)c2=O)=C1O (stereo not shown)	10
COc1ccc(-n2c(=O)c(C(=O)C3=C(O)CCCC3=O)nn(C)c2=O)cc1OC	7
Cc1cc(F)ccc1-n1c(=O)c(C(=O)C2=C(O)CCCC2=O)nn(C)c1=O	10
Cn1nc(C(=O)C2=C(O)CCCC2=O)c(=O)n(-c2ccnc(Br)c2)c1=O	9
CCn1c(=O)c(C(=O)C2=C(O)CCCC2=O)nn(C)c1=O	10
Cc1ncccc1-n1c(=O)c(C(=O)C2=C(O)CCCC2=O)nn(C)c1=O	8
Cn1nc(C(=O)C2=C(O)CCCC2=O)c(=O)n(-c2cc(F)ccc2F)c1=O	9
Cn1nc(C(=O)C2=C(O)CCCC2=O)c(=O)n(-c2ccc(Cl)cc2)c1=O	8
Cn1nc(C(=O)C2=C(O)CCCC2=O)c(=O)n(-c2ccc(F)cc2)c1=S	8
COc1ccc(-n2c(=O)c(C(=O)C3=C(O)CCCC3=O)nn(C)c2=O)cn1	10
Cn1nc(C(=O)C2=C(O)CCCC2=O)c(=O)n(CC(=O)OC(C)(C)C)c1=O	9
Cn1nc(C(=O)C2=C(O)CCCC2=O)c(=O)n(N2CCSCC2)c1=O	9
CSc1c(Cl)cc(-n2c(=O)c(C(=O)O)nn(C)c2=O)cc1Cl	7
Cn1nc(C(=O)C2=C(O)CCCC2=O)c(=O)n(C)c1=O	8
Cn1c(=O)c(C(=O)C2=C(O)CCCC2=O)nn(-c2ccccn2)c1=O	7
Cn1nc(C(=O)C2=C(O)CCCC2=O)c(=O)n(-c2cccc(C#N)c2)c1=O	9
COc1cc(-n2c(=O)c(C(=O)C3=C(O)CCCC3=O)nn(C)c2=O)cc(OC)c1OC	10
C=CCn1c(=O)c(C(=O)C2=C(O)CCCC2=O)nn(C)c1=O	10
Cc1ccc(Cl)c(-n2c(=O)c(C(=O)C3=C(O)CCCC3=O)nn(C)c2=O)c1	9
Cn1nc(C(=O)C2=C(O)CCCC2=O)c(=O)n(-c2ccc(Cl)cc2Cl)c1=O	9
Cn1nc(C(=O)C2=C(O)CCCC2=O)c(=O)n(-c2ccc(F)c(F)c2)c1=O	9
Cc1ccc(Cl)cc1-n1c(=O)c(C(=O)C2=C(O)CCCC2=O)nn(C)c1=O	9

---

- Tested on: Echinochloa crus-galli
- experiment_description: Herbicidal activity by field soil treatment (Test example 2)
- Type: in vivo
- Design: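 index 0 to 10 in 10% steps of herbicidal effect with 10 meaning complete death and 0 below 10%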
- recorded_conditions: 1000 g effective component per hectare, day 21 after the treatment
measurement_label: herbicidal effect index, Echinochloa crus-galli

compound	assayed_system	reading
CC(C)n1c(=O)c(C(=O)C2=C(O)CCCC2=O)nn(C)c1=O [I-4]	Echinochloa crus-galli	9
Cn1nc(C(=O)C2=C(O)CCCC2=O)c(=O)n(-c2cc(F)c(F)c(F)c2)c1=O [I-302]	Echinochloa crus-galli	7
CON=C(C)Cn1c(=O)c(C(=O)O)nn(C)c1=O [V-365]	Echinochloa crus-galli	7
CCCCn1c(=O)c(C(=O)C2=C(O)CCCC2=O)nn(C)c1=O [I-5]	Echinochloa crus-galli	10
Cn1nc(C(=O)C2=C(O)CCCC2=O)c(=O)n(-c2ccc(-c3ccccc3)cc2)c1=O [I-271]	Echinochloa crus-galli	10
Cn1nc(C(=O)C2=C(O)CCCC2=O)c(=O)n(-c2ccccc2-c2ccccc2)c1=O [I-269]	Echinochloa crus-galli	8
Cn1nc(C(=O)C2=C(O)CCCC2=O)c(=O)n(-c2ccccc2[N+](=O)[O-])c1=O [I-66]	Echinochloa crus-galli	10
COc1cc(-n2c(=O)c(C(=O)C3=C(O)CCCC3=O)nn(C)c2=O)c(F)cc1Cl [I-297]	Echinochloa crus-galli	10
CC(C)N(c1ccccc1)n1c(=O)c(C(=O)C2=C(O)CCCC2=O)nn(C)c1=O [I-475]	Echinochloa crus-galli	7
Cn1nc(C(=O)C2=C(O)CCCC2=O)c(=O)n(-c2c(F)cccc2F)c1=O [I-80]	Echinochloa crus-galli	9
CON=C(C)Cn1c(=O)c(C(=O)C2=C(O)CCCC2=O)nn(C)c1=O [I-471]	Echinochloa crus-galli	7
CSCn1c(=O)c(C(=O)C2=C(O)CCCC2=O)nn(C)c1=O [I-43]	Echinochloa crus-galli	10
Cc1cccc(-n2c(=O)c(C(=O)C3=C(O)CCCC3=O)nn(C)c2=O)n1 [I-279]	Echinochloa crus-galli	7
Cc1cccc(F)c1-n1c(=O)c(C(=O)C2=C(O)CCCC2=O)nn(C)c1=O [I-110]	Echinochloa crus-galli	7
Cn1nc(C(=O)C2=C(O)CCCC2=O)c(=O)n(N2CCCCC2)c1=O [I-304]	Echinochloa crus-galli	10
CCN(c1ccccc1)n1c(=O)c(C(=O)C2=C(O)CCCC2=O)nn(C)c1=O [I-474]	Echinochloa crus-galli	7
